- Experiment Summary: Oral GHB toxicokinetics with and without AR-C155858
- Measurement Setup: male, Sprague-Dawley, rat, plasma, po, 1500 mg/kg
Experimental Readout: Cmax
Don't forget the unit after the number, please.

The reported Cmax of the compound O=C(O)CCCO [GHB, γ-hydroxybutyric acid] was 659 µg/mL

====

- Experiment Summary: Oral GHB toxicokinetics with and without AR-C155858
- Measurement Setup: male, Sprague-Dawley, rat, plasma, po, 1500 mg/kg
Experimental Readout: CL/F (mL/min/kg)
One number for each entry, in mL/min/kg.

The reported CL/F of the compound O=C(O)CCCO [GHB, γ-hydroxybutyric acid] was 6.52

====

- Experiment Summary: Oral GHB toxicokinetics with and without AR-C155858
- Measurement Setup: male, Sprague-Dawley, rat, urine and plasma, po, 1500 mg/kg
Experimental Readout: CL renal (mL/min/kg)
One number for each entry, in mL/min/kg.

The reported CL renal of the compound O=C(O)CCCO [GHB, γ-hydroxybutyric acid] was 1.82
